B1: library; a variant is named by its letters at N, in order (parent)
chain: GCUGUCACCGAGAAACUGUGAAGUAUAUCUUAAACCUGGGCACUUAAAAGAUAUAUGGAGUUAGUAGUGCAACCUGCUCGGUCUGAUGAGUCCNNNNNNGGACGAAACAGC

- Variants of: B1
- assay-remarks: FACS-Seq fitted mean relative fluorescence mCherry/BFP without ligand (log10 relative fluorescence); HEK293T; ligand: cyclic di-GMP (c-di-GMP-II aptamer); higher = higher reporter protein expression
- settings: ligand present: no
assay-readout: FACS-Seq fitted mean (log10)
Give bare numbers.

Worked set:
>  <alteration>
UCGAGC

>  <FACS-Seq fitted mean (log10)>
-0.085

$$$$
>  <alteration>
AACAAU

>  <FACS-Seq fitted mean (log10)>
-0.133

$$$$
>  <alteration>
AUAGUA

>  <FACS-Seq fitted mean (log10)>
0.0378

$$$$
>  <alteration>
GGGGAC

>  <FACS-Seq fitted mean (log10)>
0.068

$$$$
>  <alteration>
ACUAUA

>  <FACS-Seq fitted mean (log10)>
-0.358

$$$$

Hey, can you go through the list below and give me FACS-Seq fitted mean (log10) for every item?
1. CUUCAA
2. CGUGAA
3. GUGGUC
4. CGCUGA
5. CACAGU
6. UGCAAU

[-0.32, -0.546, -0.682, -0.177, -0.189, -0.335]
